growth for assorted compounds
Test system: UO-31 renal
Assay: NCI-60 one-dose screen, 48 h (100 = growth as untreated, 0 = no growth, -100 = all killed)
Conditions: 10 µM unless noted
Description: Growth inhibition of the UO-31 human tumor cell line is measured as a screen for anti-cancer activity. Cells are grown in 96 well plates and exposed to the test compound for 48 hours. Compounds are tested at a single concentration, which is 10^-5 M for most compounds. The reported endpoint is percent growth (GI% or GIPRCNT), where numbers from 0 - 100% represent growth inhibition, and numbers from -100% - 0 represent cell death. For example, a value of 40 represents 60% growth inhibition. […]
The panel holds about 83,000 compounds, 20% with a hit somewhere; the sample as a whole holds those more often.
Numbers only here, please. The scale is %.

Take a look at these entries with their results.
>>> experimental_value("COC(=O)c1ccc2nc(-c3cc4ccccc4n3C)n(CCCCOc3cc4c(cc3OC)C(=O)N3CCC[C@H]3C=N4)c2c1")
-57.3
>>> experimental_value("Cc1cc(Cl)ccc1OC(C)C(=O)Nc1nnc(C2CC2)s1 (stereo not given)")
40.1
>>> experimental_value("N#Cc1ccc(NC(=O)c2ccc3cccnc3c2O)cc1")
18.4

Sure, the documented growth for "CCc1cccc(C)c1NC(=O)c1sc2nc3c(cc2c1N)C(=O)CCC3" is 50.1

Sure, the documented growth for "O=C(Nc1ccc(OCc2nnc(-c3ccc(Cl)cc3)o2)c(F)c1)Nc1ccc(Cl)c(Cl)c1" is 56.3

Sure, the documented growth for "Cc1cc(Nc2nc(C(=O)Nc3ccccc3)nc3ccccc23)n[nH]1" is 37.3

Sure, the documented growth for "O=C(Nc1ccc(I)cc1)c1cccc([N+](=O)[O-])c1O" is -0.371

Sure, the documented growth for "CCN(C(=O)c1cc2ncccc2[nH]1)[C@H]1CCC[C@@H](NCc2cccc(F)c2)C1" is 74.3

====

Test system: NCI-H522 lung
Assay: NCI-60 one-dose screen, 48 h
Conditions: 10 µM unless noted
Description: Growth inhibition of the NCI-H522 human Non-Small Cell Lung tumor cell line is measured as a screen for anti-cancer activity. Cells are grown in 96 well plates and exposed to the test compound for 48 hours. Compounds are tested at a single concentration, which is 10^-5 M for most compounds. The reported endpoint is percent growth (GI% or GIPRCNT), where numbers from 0 - 100% represent growth inhibition, and numbers from -100% - 0 represent cell death. […]
Compounds without any hit were thinned out: in the full panel of roughly 83,000, 20% have a hit. The source made the active and inactive calls. How the source made its calls: active means growth percent below 10; inactive means the rest.
Give one outcome, nothing more. List: yes (1) (active), no (0) (inactive)

# count of solved cases: 5
>>> category_label("COc1cccc(NC(=O)Cn2cc3c(=O)oc4ccccc4c3n2)c1")
"no (0)"
>>> category_label("O=C(Nc1cc(C(F)(F)F)cc(C(F)(F)F)c1)Nc1ccc(OCc2nnc(-c3ccc(Cl)cc3)o2)c(F)c1")
"yes (1)"
>>> category_label("CN(C)c1ccc(/C=C\\N=Nc2ccc(Br)cc2)cc1")
"no (0)"
>>> category_label("CC(C)C[C@H](NC(=O)Cn1ccc(NCc2ccccc2)cc1=O)B(O)O")
"yes (1)"
>>> category_label("COc1cc(-c2cc(/C=C3\\CCCCC3=O)[nH]n2)cc(OC)c1OC")
"no (0)"

### Prompt What did the test return for "COc1cc(/C=C\c2cc(OC)c(OC)c(OC)c2)cc(N/C=C\C(=O)c2c[nH]c3ccccc23)c1OC" ?
### Response yes (1)

### Prompt What did the test return for "CCOC(=O)c1cc(/C(=N\O)c2cc(OC)c(OC)c(OC)c2)n2c(C)cccc12" ?
### Response yes (1)

### Prompt What did the test return for "COc1ccc(/C=C/C(=O)/C=C/c2cc3ccc(Cl)cc3[nH]c2=O)cc1" ?
### Response no (0)

### Prompt What did the test return for "COc1cc2c(cc1OCCCCn1c(-c3cc(=O)c4ccccc4o3)nc3ccccc31)N=C[C@@H]1CCCN1C2=O" ?
### Response no (0)

### Prompt What did the test return for "COc1ccc(-n2c(C)cc(-c3ccccc3)c2C)cc1" ?
### Response no (0)

### Prompt What did the test return for "c1ccc2c(c1)Oc1ccccc1C2C1c2ccccc2Oc2ccccc21" ?
### Response no (0)

### Prompt What did the test return for CCOC(=O)C(Cc1ccccc1)n1c(O)c(C=Nc2ccc(C(=O)OCCN(CC)CC)cc2)sc1=O (stereo not given) ?
### Response no (0)

### Prompt What did the test return for CCN1C(=O)N(CC)C2C1NN=c1s/c(=C\c3cccc(F)c3)c(=O)n12 (stereo not given) ?
### Response yes (1)

====

system: OVCAR-4 ovarian; test: NCI-60 one-dose screen, 48 h (100 = growth as untreated, 0 = no growth, -100 = all killed); details: 10 µM unless noted
About 83,000 compounds went through this panel and 20% of them were active in at least one assay; those are over-represented in the sample as a whole.
growth for assorted molecules
Numbers only here, please. The scale is %.

>>> experimental_value("COc1ccc(S(=O)(=O)Nc2cc(/C=C\\c3cc(OC)c(OC)c(OC)c3)cc(OC)c2OC)cc1OC")
39.7

OVCAR-4 ovarian data for "O=C1C2=C(C(=O)c3c(O)ccc(O)c31)N(c1cccnc1)Cc1ccccc1O2" ; its growth: -95

OVCAR-4 ovarian data for "Cc1ccc(Nc2ncnc3c2sc2ncccc23)cc1" ; its growth: 109

OVCAR-4 ovarian data for CC(Br)C(O)c1cc2c(cc1Br)OCO2 (configuration not stated) ; its growth: 105

====

System: TK-10 renal
Assay: NCI-60 one-dose screen, 48 h
Settings: 10 µM unless noted
Experimental: Growth inhibition of the TK-10 human tumor cell line is measured as a screen for anti-cancer activity. Cells are grown in 96 well plates and exposed to the test compound for 48 hours. Compounds are tested at a single concentration, which is 10^-5 M for most compounds. The reported endpoint is percent growth (GI% or GIPRCNT), where numbers from 0 - 100% represent growth inhibition, and numbers from -100% - 0 represent cell death. For example, a value of 40 represents 60% growth inhibition. […]
Compounds without any hit were thinned out: in the full panel of roughly 83,000, 20% have a hit. Calls of active or inactive are those of the source. Rule for the calls: active = growth percent below 10; inactive = the rest.
Give one outcome, nothing more. List: active, inactive

# count of solved cases: 4
>>> category_label("CN(C)C/C=C/C(=O)Nc1cc2c(Nc3ccc(F)c(Cl)c3F)ncnc2cc1OCCOC(F)F")
"active"
>>> category_label("Cn1cc(C=O)c2ccccc21")
"inactive"
>>> category_label("CCCCCc1c(C)[nH]c(/C=c2\\[nH]/c(=C3/C=c4ccccc4=N3)cc2OC)c1C")
"active"
>>> category_label("COc1ccc(/C=c2\\sc3n(c2=O)C2C(NN=3)N(C)C(=O)N2C)cc1 (stereo unspecified)")
"inactive"

### Prompt What did the test return for "CN(C)c1ncc(-c2ccc(C(F)(F)F)cc2)c(NC2CCCCCC2)n1" ?
### Response inactive

### Prompt What did the test return for "CCCCCCCCCCCCCCCCCCOc1cccc(CCOP(=O)(O)OCC[N+](C)(C)C)c1" ?
### Response inactive

### Prompt What did the test return for "c1ccc([P+](CCC[P+](c2ccccc2)(c2ccccc2)c2ccccc2)(c2ccccc2)c2ccccc2)cc1" ?
### Response inactive

### Prompt What did the test return for O=C(CC(O)c1ccncc1)c1ccccc1 (stereo unspecified) ?
### Response active

### Prompt What did the test return for "CCn1cc(C(=O)O)c(=O)c2cc(F)c(N3CCN(S(=O)(=O)c4ccc(OC)c(OC)c4)CC3)cc21" ?
### Response inactive

### Prompt What did the test return for "O=C1CCC/C=C\C[C@H]2C=CC(=O)/C2=C/C[C@H](C/C=C\CC(F)(F)F)O1" ?
### Response active

### Prompt What did the test return for "Cc1ccc2nc(-c3c(CCCO)noc3N)[nH]c(=O)c2c1" ?
### Response inactive

### Prompt What did the test return for COC(=O)C(CC(=O)c1ccc(-c2ccccc2)cc1)c1ccccc1 (stereo unspecified) ?
### Response inactive

### Prompt What did the test return for "COc1ccc(-c2nc3sccn3c2-c2ccnc(NCCCNS(=O)(=O)c3ccc(F)cc3)n2)cc1" ?
### Response inactive

### Prompt What did the test return for "CC(=O)Nc1ccc2c(c1)/C(=C\C=C/c1ccc([N+](C)(C)C)cc1)c1ccccc1-2" ?
### Response inactive

### Prompt What did the test return for NC(CC(N)C(=O)O)C(=O)O (stereo unspecified) ?
### Response inactive

### Prompt What did the test return for "CCCCCCCCCCC/C=C\C[C@H](O)C/C=C1/C(=O)C=C[C@@H]1C/C=C\CCCC(=O)OC" ?
### Response active

### Prompt What did the test return for "c1cncc(CNc2ccccc2-c2nnc(Nc3ccc4c(c3)OCCO4)o2)c1" ?
### Response inactive

### Prompt What did the test return for COc1cc(C2C3=C(COC3=O)Nc3c2ccc2c3CCCC2)cc2c1OCO2 (stereo unspecified) ?
### Response inactive

### Prompt What did the test return for O=C(c1c[nH]c2ccccc12)C(Sc1nc2ccccc2c(=O)[nH]1)c1ccccc1 (stereo unspecified) ?
### Response inactive

### Prompt What did the test return for C/C1=C\CCC2(C)OC2CC2CCC(C)(O)C(CC1)C2(C)C (stereo unspecified) ?
### Response inactive

### Prompt What did the test return for "CCOc1ccc(/C=C/C=N/NC(N)=S)cc1" ?
### Response inactive
